Where these numbers come from: PubChem BioAssay AID1963984

# System: 233499-124-R-J3-PDC spheroids with HUVEC/MSC, viability
# EXPERIMENTAL_DETAILS: Anticancer human tumor 233499-124-R-J3-PDC patient-derived colon adenocarcinoma cell line growth inhibition [PI3K]
# CONDITION: curve of first compound; second compound 0.0316 µM
# Excerpt: Combinatorial screen of targeted agents with the PI3K inhibitors inavolisib, alpelisib, duvelisib, and copanlisib in multi-cell type tumor spheroids A high-throughput screen of multi-cell type tumor spheroids was designed to identify active combinations of targeted small molecules and PI3K pathway inhibitors. […] Compounds. […] If the clinical Cmax for an agent had not been determined, the highest concentration tested was 10 microM. […]
ASSAY_ENDPOINT: IC50 (µM)
Answers are plain numbers, in µM.

* Cn1ncc(Cl)c1-c1cc(C(=O)NC(CN)Cc2cccc(F)c2)sc1Cl (stereo not given) + CC(Nc1ccc2c(c1)OCCn1cc(N3C(=O)OCC3C(F)F)nc1-2)C(N)=O | 2.73

From here, focus on the item given below.
Supply reported IC50 belonging to this molecule: CCCS(=O)(=O)Nc1ccc(F)c(C(=O)c2c[nH]c3ncc(-c4ccc(Cl)cc4)cc23)c1F + COc1c(OCCCN2CCOCC2)ccc2c3n(c(=NC(=O)c4cnc(N)nc4)nc12)CCN3
5.03

====

Please go through the items and note down their viability, T/C.
# Test system: 233499-124-R-J3-PDC spheroids with HUVEC/MSC, viability
# EXPERIMENTAL_DETAILS: Anticancer human tumor 233499-124-R-J3-PDC cell line growth inhibition [PI3K];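 note: spheroids exposed to agents for seven days before readout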;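 for viability, T/C: percent viability relative to DMSO vehicle control taken as 100%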
# CONDITION: second compound 1 µM; first compound 0.316 µM; stronger effect = lower value
Numbers only, in %.

The cases that follow already have their viability, T/C on record.
• CC1(C)CCC(Nc2ncc(C(F)(F)F)c(-c3c[nH]c4c(P(C)(C)=O)c(C#N)ccc34)n2)CN1 (stereo unspecified) + COc1c(OCCCN2CCOCC2)ccc2c3n(c(=NC(=O)c4cnc(N)nc4)nc12)CCN3 = 8.48
• CCN1CCN(Cc2ccc(Nc3ncc(F)c(-c4cc(F)c5nc(C)n(C(C)C)c5c4)n3)nc2)CC1 + COc1c(OCCCN2CCOCC2)ccc2c3n(c(=NC(=O)c4cnc(N)nc4)nc12)CCN3 = 7.45
• Cn1ncc(Cl)c1-c1cc(C(=O)NC(CN)Cc2cccc(F)c2)sc1Cl (stereo unspecified) + CC(Nc1ccc2c(c1)OCCn1cc(N3C(=O)OCC3C(F)F)nc1-2)C(N)=O = 67.2
• CC(Cn1ccc(-c2ccc(C#N)c(Cl)c2)n1)NC(=O)c1cc(C(C)O)[nH]n1 (stereo unspecified) + CC(Nc1ncnc2nc[nH]c12)c1cc2cccc(Cl)c2c(=O)n1-c1ccccc1 = 81.4

Respectfully, I request viability, T/C for each entry included below.
1. CC1(C)CCC(Nc2ncc(C(F)(F)F)c(-c3c[nH]c4c(P(C)(C)=O)c(C#N)ccc34)n2)CN1 (stereo unspecified) + CC(Nc1ccc2c(c1)OCCn1cc(N3C(=O)OCC3C(F)F)nc1-2)C(N)=O
2. CC1(C)CCC(CN2CCN(c3ccc(C(=O)NS(=O)(=O)c4ccc(NCC5CCOCC5)c([N+](=O)[O-])c4)c(Oc4cnc5[nH]ccc5c4)c3)CC2)=C(c2ccc(Cl)cc2)C1 + CC(Nc1ccc2c(c1)OCCn1cc(N3C(=O)OCC3C(F)F)nc1-2)C(N)=O

1. 28.6
2. 47.4
